# tested system: BDNF/NT-3 growth factors receptor (Homo sapiens) (UniProt Q16620)
# Sequence (Q16620 32-822 limits assumed): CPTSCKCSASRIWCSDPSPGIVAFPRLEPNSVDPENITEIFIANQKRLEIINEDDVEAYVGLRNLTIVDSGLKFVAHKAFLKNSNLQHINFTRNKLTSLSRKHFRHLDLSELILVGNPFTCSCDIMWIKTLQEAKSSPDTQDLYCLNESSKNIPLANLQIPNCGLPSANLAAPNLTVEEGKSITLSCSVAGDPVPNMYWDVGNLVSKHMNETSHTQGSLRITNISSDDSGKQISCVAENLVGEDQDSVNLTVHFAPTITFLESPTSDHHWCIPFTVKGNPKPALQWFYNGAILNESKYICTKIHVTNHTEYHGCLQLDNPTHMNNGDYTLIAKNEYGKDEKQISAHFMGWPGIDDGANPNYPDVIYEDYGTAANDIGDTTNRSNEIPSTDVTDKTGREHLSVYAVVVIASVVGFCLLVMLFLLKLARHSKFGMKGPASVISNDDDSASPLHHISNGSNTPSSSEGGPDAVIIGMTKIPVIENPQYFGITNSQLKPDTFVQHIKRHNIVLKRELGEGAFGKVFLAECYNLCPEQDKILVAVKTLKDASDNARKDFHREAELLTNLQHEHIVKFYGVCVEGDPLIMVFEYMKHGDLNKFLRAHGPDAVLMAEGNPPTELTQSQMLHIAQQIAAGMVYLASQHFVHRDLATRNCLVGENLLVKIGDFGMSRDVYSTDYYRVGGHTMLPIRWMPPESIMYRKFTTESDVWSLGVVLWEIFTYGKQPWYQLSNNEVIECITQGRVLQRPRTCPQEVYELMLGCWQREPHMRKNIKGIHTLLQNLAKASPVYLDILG
# reported conditions: at 1 µM
endpoint: residual activity
Remember to follow the number with its unit.

Take a look at these entries with their results.
Cc1cc(C)c(/C=C2\C(=O)Nc3ccccc32)[nH]1; 40%
O=C(c1ccccc1)c1ccc(N2CCOCC2)cc1O; 131%
COc1ccc2c(c1)c(C1=C(c3c[nH]c4ccccc34)C(=O)NC1=O)cn2CCCN(C)C; 77%
O=C1NC(=O)C(c2c[nH]c3ccccc23)=C1c1c[nH]c2ccccc12; 29%
O=C(NC(NC(=S)Nc1ccc(F)c([N+](=O)[O-])c1)C(Cl)(Cl)Cl)C(c1ccccc1)c1ccccc1 (stereo not drawn); 91%
N#C/C(=C1/Nc2ccccc2S1)c1ccnc(NCCc2cccnc2)n1; 76%
O=C(O)/C=C/c1cc(Br)c(Br)c(Br)c1Br; 109%

Continue with the next molecule.
Task: Answer with reported residual activity of Nc1ncnc2c1c(-c1ccc(Oc3ccccc3)cc1)cn2C1CCCC1
Result: 44%

---

# tested system: Homeodomain-interacting protein kinase 2 (Homo sapiens) (UniProt Q9H2X6)
# Sequence (Q9H2X6 whole entry, looked up): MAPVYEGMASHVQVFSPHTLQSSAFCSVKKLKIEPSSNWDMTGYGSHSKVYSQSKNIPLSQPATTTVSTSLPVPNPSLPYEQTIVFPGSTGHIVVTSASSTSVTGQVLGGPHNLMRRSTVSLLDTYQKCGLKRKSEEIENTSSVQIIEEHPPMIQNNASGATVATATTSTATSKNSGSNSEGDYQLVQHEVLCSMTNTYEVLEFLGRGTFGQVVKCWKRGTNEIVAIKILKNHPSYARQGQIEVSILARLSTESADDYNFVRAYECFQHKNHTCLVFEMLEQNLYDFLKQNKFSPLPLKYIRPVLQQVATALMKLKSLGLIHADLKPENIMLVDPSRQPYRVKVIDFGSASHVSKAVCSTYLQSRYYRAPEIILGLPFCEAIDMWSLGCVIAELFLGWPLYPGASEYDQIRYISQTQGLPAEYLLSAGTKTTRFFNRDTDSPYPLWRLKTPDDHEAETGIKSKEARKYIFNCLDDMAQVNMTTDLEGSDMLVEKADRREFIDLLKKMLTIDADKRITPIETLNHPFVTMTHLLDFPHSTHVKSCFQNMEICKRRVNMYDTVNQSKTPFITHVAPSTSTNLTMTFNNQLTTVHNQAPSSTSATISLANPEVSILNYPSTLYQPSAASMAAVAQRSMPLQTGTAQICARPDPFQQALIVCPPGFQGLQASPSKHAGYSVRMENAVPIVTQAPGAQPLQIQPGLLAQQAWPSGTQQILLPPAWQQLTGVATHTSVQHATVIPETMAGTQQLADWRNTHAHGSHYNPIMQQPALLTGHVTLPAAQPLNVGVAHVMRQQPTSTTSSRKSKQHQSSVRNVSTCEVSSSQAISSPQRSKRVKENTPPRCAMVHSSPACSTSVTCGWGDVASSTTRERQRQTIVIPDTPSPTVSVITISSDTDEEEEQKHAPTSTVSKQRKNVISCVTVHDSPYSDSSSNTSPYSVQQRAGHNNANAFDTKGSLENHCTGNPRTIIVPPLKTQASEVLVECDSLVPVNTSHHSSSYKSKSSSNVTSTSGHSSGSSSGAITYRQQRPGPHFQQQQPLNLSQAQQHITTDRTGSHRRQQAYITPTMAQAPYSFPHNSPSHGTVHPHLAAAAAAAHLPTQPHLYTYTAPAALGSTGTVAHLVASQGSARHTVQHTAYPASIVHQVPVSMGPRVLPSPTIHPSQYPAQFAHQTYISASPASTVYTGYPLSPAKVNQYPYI
# reported conditions: at 10 µM
endpoint: residual activity

Take a look at these entries with their results.
Nc1nccc(-c2c(-c3ccc(F)cc3)ncn2C2CCNCC2)n1; 62%
O=C1Cc2c([nH]c3ccc(Br)cc23)-c2ccccc2N1; 64%
Cc1cc(C)c(/C=C2\C(=O)Nc3ccccc32)[nH]1; 39%
O=C1NC(=O)c2c1c1c3ccccc3[nH]c1n1cncc21; 13%
CCCCc1c(-c2ccc(OC)cc2)[nH]c2nccnc12; 90%

Task: Report value only: residual activity, Homeodomain-interacting protein kinase 2 (Homo sapiens) (UniProt Q9H2X6), O=c1cc(N2CCOCC2)oc2c1ccc1ccccc12
Result: 22%

Task: Report value only: residual activity, Homeodomain-interacting protein kinase 2 (Homo sapiens) (UniProt Q9H2X6), NC(=O)Nc1sc(-c2ccc(F)cc2)cc1C(N)=O
Result: 67%

Task: Report value only: residual activity, Homeodomain-interacting protein kinase 2 (Homo sapiens) (UniProt Q9H2X6), CC(C)[C@H](CO)Nc1nc(Nc2cc(N)cc(Cl)c2)c2ncn(C(C)C)c2n1
Result: 32%

Task: Report value only: residual activity, Homeodomain-interacting protein kinase 2 (Homo sapiens) (UniProt Q9H2X6), N#C/C(=C1/Nc2ccccc2S1)c1ccnc(NCCc2cccnc2)n1
Result: 6%

Task: Report value only: residual activity, Homeodomain-interacting protein kinase 2 (Homo sapiens) (UniProt Q9H2X6), O=C(CCCc1ccc(-c2ccccc2F)cc1)Nc1ccc(O)cc1
Result: 105%

Task: Report value only: residual activity, Homeodomain-interacting protein kinase 2 (Homo sapiens) (UniProt Q9H2X6), Nc1ncnc2c1c(-c1ccc(Oc3ccccc3)cc1)cn2C1CCCC1
Result: 75%

Task: Report value only: residual activity, Homeodomain-interacting protein kinase 2 (Homo sapiens) (UniProt Q9H2X6), CC(C)(C)c1nc2c3ccc(F)cc3c3c(=O)[nH]ccc3c2[nH]1
Result: 21%

Task: Report value only: residual activity, Homeodomain-interacting protein kinase 2 (Homo sapiens) (UniProt Q9H2X6), O=C1C(Cl)=C(N2C(=O)CCC2=O)C(=O)c2ccccc21
Result: 92%

---

# tested system: Myosin light chain kinase, smooth muscle (Homo sapiens)
# reported conditions: at 1 µM
Overview of recorded residual activity for various compounds
Just the number please, in %, no unit attached.

NCCNc1ncc(C(N)=O)c(Nc2cccc(C(F)(F)F)c2)n1; 67

Task: Report value only: residual activity, Myosin light chain kinase, smooth muscle (Homo sapiens), CC(C)[C@H](CO)Nc1nc(Nc2cc(N)cc(Cl)c2)c2ncn(C(C)C)c2n1
Result: 82

Task: Report value only: residual activity, Myosin light chain kinase, smooth muscle (Homo sapiens), Cc1cc(C)c(/C=C2\C(=O)Nc3ccccc32)[nH]1
Result: 32

Task: Report value only: residual activity, Myosin light chain kinase, smooth muscle (Homo sapiens), CC(C)N(CCC(=O)c1ccc2ccccc2c1)Cc1ccccc1
Result: 81

---

# tested system: Macrophage colony-stimulating factor 1 receptor (Homo sapiens)
# reported conditions: at 1 µM
endpoint: residual activity
Remember to follow the number with its unit.

Task: Answer with reported residual activity of Oc1cccc(-c2nc(N3CCOCC3)c3oc4ncccc4c3n2)c1
Result: 78%

Task: Answer with reported residual activity of NC(=O)Nc1sc(-c2ccc(F)cc2)cc1C(N)=O
Result: 11%

Task: Answer with reported residual activity of O=C1Cc2c([nH]c3ccc(Br)cc23)-c2ccccc2N1
Result: 49%

Task: Answer with reported residual activity of Cn1sc(=O)n(Cc2ccccc2)c1=O
Result: 91%

Task: Answer with reported residual activity of O=C(CCCc1ccc(-c2ccccc2F)cc1)Nc1ccc(O)cc1
Result: 97%

---

# tested system: Serine/threonine-protein kinase 17A (Homo sapiens) (UniProt Q9UEE5)
# Sequence (Q9UEE5 whole entry): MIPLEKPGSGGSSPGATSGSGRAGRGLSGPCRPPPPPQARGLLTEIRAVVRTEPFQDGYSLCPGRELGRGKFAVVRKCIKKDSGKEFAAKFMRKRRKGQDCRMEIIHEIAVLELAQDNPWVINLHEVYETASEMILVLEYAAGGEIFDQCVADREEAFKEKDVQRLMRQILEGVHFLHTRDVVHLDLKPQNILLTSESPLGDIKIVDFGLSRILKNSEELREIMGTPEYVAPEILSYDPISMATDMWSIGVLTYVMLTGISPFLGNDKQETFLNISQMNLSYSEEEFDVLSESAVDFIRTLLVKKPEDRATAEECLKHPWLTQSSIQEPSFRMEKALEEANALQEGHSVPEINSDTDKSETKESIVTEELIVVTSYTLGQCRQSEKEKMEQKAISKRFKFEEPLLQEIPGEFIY
# reported conditions: at 10 µM
endpoint: residual activity (%)
Just the number please, in %, no unit attached.

CCCCc1c(-c2ccc(O)cc2)[nH]c2nccnc12; 44
Cn1c2ccccc2c2c3c(c4c5ccccc5n(CCC#N)c4c21)CNC3=O; 36
O=C1Nc2ccccc2/C1=C\c1c(Cl)[nH]c2ccccc12; 85
O=C1Nc2ccc(Cl)cc2/C1=C/c1cc(Cl)c(O)c(Cl)c1; 17
O=c1c(-c2ccc(F)cc2)c(-c2ccncc2)[nH]n1-c1ccc(Cl)cc1; 71
CSc1nc(-c2ccc(F)cc2)c(-c2ccnc(NC(C)c3ccccc3)c2)[nH]1 (stereo unspecified); 72

Task: Answer with reported residual activity of Nc1ncnc2c1cnn2-c1ccccc1
Result: 68

Task: Answer with reported residual activity of COc1cc2c(cc1OC)-c1n[nH]c(Nc3cccc(F)c3)c1C2
Result: 53

Task: Answer with reported residual activity of O=C(Nc1nc2ccccc2n1CCN1CCOCC1)c1cccc([N+](=O)[O-])c1
Result: 53

Task: Answer with reported residual activity of O=C(O)/C=C/c1cc(Br)c(Br)c(Br)c1Br
Result: 39

Task: Answer with reported residual activity of O=c1cc(N2CCNCC2)oc2c(-c3ccccc3)cccc12
Result: 66

---

# tested system: Mitogen-activated protein kinase 14 (Homo sapiens)
# reported conditions: at 10 µM
// returns -1 unless residual activity is strictly below 70%, in which case 1

For orientation, consider the following solved cases.
Fc1ccc(-c2nc3n(c2-c2ccncc2)CCS3)cc1; 1
O=C(CCCc1ccc(-c2ccccc2F)cc1)Nc1ccc(O)cc1; 1
COc1ccc(Cl)cc1NC(=O)Nc1cc(C)nc2ccccc12; -1
O=C(c1ccccc1)c1ccc(N2CCOCC2)cc1O; -1
CC(C)N(CCC(=O)c1ccc2ccccc2c1)Cc1ccccc1; -1

Task: residual activity under 70%? Item: CC(C)(C)n1nc(Cc2cccc3ccccc23)c2c(N)ncnc21
Result: 1

Task: residual activity under 70%? Item: N#C/C(=C1/Nc2ccccc2S1)c1ccnc(NCCc2cccnc2)n1
Result: 1

Task: residual activity under 70%? Item: Cn1sc(=O)n(Cc2ccccc2)c1=O
Result: -1

Task: residual activity under 70%? Item: CN(C)S(=O)(=O)c1ccc2c(c1)/C(=C/c1cc3c([nH]1)CCCC3)C(=O)N2
Result: -1

Task: residual activity under 70%? Item: N#C/C(=C\c1ccc(O)c(O)c1)C(=O)NCc1ccccc1
Result: -1

Task: residual activity under 70%? Item: O=C1NC(=O)C(c2cn(CCCO)c3ncccc23)=C1c1cnccn1
Result: -1

Task: residual activity under 70%? Item: CC(C)c1nn(-c2c(Cl)cccc2Cl)c2nc(Cc3ccc(OCCO)cc3)[nH]c(=O)c12
Result: -1

---

Overview of recorded residual activity for various compounds
# tested system: Tyrosine-protein kinase Fyn (Homo sapiens)
# reported conditions: at 1 µM
Just the number please, in %, no unit attached.

O=C1NC(=O)c2c1c1c3ccccc3[nH]c1n1cncc21; 51
O=C1Nc2ccccc2/C1=C\c1c(Cl)[nH]c2ccccc12; 81
CC(C)N(CCC(=O)c1ccc2ccccc2c1)Cc1ccccc1; 88
O=C1Cc2c([nH]c3ccc(Br)cc23)-c2ccccc2N1; 31

Task: Answer with reported residual activity of CCCCc1c(-c2ccc(O)cc2)[nH]c2nccnc12
Result: 43

Task: Answer with reported residual activity of Nc1ncnc2[nH]nc(Nc3ccc(F)cc3)c12
Result: 54

Task: Answer with reported residual activity of Oc1cccc(-c2nc(N3CCOCC3)c3oc4ncccc4c3n2)c1
Result: 82

Task: Answer with reported residual activity of Cn1c2ccccc2c2c3c(c4c5ccccc5n(CCC#N)c4c21)CNC3=O
Result: 47

Task: Answer with reported residual activity of O=C(NC(NC(=S)Nc1ccc(F)c([N+](=O)[O-])c1)C(Cl)(Cl)Cl)C(c1ccccc1)c1ccccc1 (stereo unspecified)
Result: 104

Task: Answer with reported residual activity of COc1cc2nccc(Oc3ccc(NC(=O)Nc4cc(C)on4)c(Cl)c3)c2cc1OC
Result: 5

Task: Answer with reported residual activity of CCCCc1c(-c2ccc(OC)cc2)[nH]c2nccnc12
Result: 40
